System: Phytophthora infestans
Test: whole plant or invertebrate
Format: in vivo
Settings: tomato late blight; spray the day before inoculation; compounds without asterisk (not 40 or 10 ppm)
quantity: Test C disease rating (100 = 100% disease control, 0 = no disease control) (%)

- molecule: "Cc1cc(C(F)(F)F)nn1CC(=O)N1CCC(c2nc(C(=O)N(C)C3CC(CO)c4ccccc43)cs2)CC1 (stereo not shown)"
  measured-target: "Phytophthora infestans"
  experimental-result: 100
- molecule: "Cc1cc(C)nc(CC(=O)N2CCC(c3nc(C(=O)N(C)[C@@H]4CCCc5ccccc54)cs3)CC2)c1"
  measured-target: "Phytophthora infestans"
  experimental-result: 100
- molecule: "C[C@H](c1ccccc1)N(C)C(=O)c1csc(C2CCN(C(=O)Cn3cnc(C(F)(F)F)n3)CC2)n1"
  measured-target: "Phytophthora infestans"
  experimental-result: 53
- molecule: "Cc1ccc(C)c(CC(=O)N2CCC(c3nc(C(=O)N(C)C(C)c4cccs4)cs3)CC2)c1 (stereo not shown)"
  measured-target: "Phytophthora infestans"
  experimental-result: 99

---

Test system: Phytophthora infestans
Test: whole plant or invertebrate
Format: in vivo
Conditions: tomato late blight; spray 17 h after inoculation; compounds without asterisk (not 40 or 10 ppm)
quantity: Test D disease rating (100 = 100% disease control, 0 = no disease control) (%)

- molecule: "Cc1ccc(C)c(CC(=O)N2CCC(c3nc(C(=O)N(C)C(CC(C)C)c4ccccc4)cs3)CC2)c1 (stereo not shown)"
  experimental-result: 0
- molecule: "Cc1cc(C(F)(F)F)nn1CC(=O)N1CCC(c2nc(C(=O)N(C)Cc3ccccc3)cs2)CC1"
  experimental-result: 80
- molecule: "Cc1ccc(C)c(CC(=O)N2CCC(c3nc(C(=O)N(C)C(C)c4cccnc4)cs3)CC2)c1 (stereo not shown)"
  experimental-result: 83
- molecule: "COc1ccc(CCN(C)C(=O)c2csc(C3CCN(C(=O)Cc4cc(C)ccc4C)CC3)n2)cc1OC"
  experimental-result: 24
- molecule: "Cc1cc(C(F)(F)F)nn1CC(=O)N1CCC(c2nc(C(=O)N(C)C(C)(C)c3ccccc3)cs2)CC1"
  experimental-result: 99
- molecule: "Cc1ccc(C)c(CC(=O)N2CCC(c3nc(C(=O)N(C)[C@H](C)c4ccccc4F)cs3)CC2)c1"
  experimental-result: 94
- molecule: "CCOc1cccc(CC(=O)N2CCC(c3nc(C(=O)N(C)[C@H](C)c4ccccc4)cs3)CC2)c1"
  experimental-result: 0

---

System: Phytophthora infestans
Experiment: whole plant or invertebrate
Format: in vivo
Conditions: Phytophthora infestans, in Solanum lycopersicum, 144 h, read-out: Test C disease rating (100 = 100% disease control, 0 = no disease control)
pest or weed control at 40 ppm: recorded values

- compound: "Cc1cc(C(F)(F)F)nn1CC(=O)N1CCC(c2nc(C(=O)N(C)C3CCC(=O)c4ccccc43)cs2)CC1 (stereo not shown) [Compound 211]"
  measured-target: "Phytophthora infestans"
  result-units: "%"
  pest or weed control at 40 ppm: 100
- compound: "Cc1cc(C(F)(F)F)nn1CC(=O)N1CC=C(c2nc(C(=O)N(C)[C@@H]3CCCc4ccccc43)cs2)CC1 [Compound 218]"
  measured-target: "Phytophthora infestans"
  result-units: "%"
  pest or weed control at 40 ppm: 100
- compound: "Cc1cc(C(F)(F)F)nn1CC(=O)N1CCC(c2nc(C(=O)N(C)C3c4ccccc4CC3(C)C)cs2)CC1 (stereo not shown) [Compound 222]"
  measured-target: "Phytophthora infestans"
  result-units: "%"
  pest or weed control at 40 ppm: 100
- compound: "Cc1cc(C(F)(F)F)nn1CC(=O)N1CCC(n2cc(C(=O)N(C)[C@@H]3CCCc4ccccc43)cn2)CC1 [Compound 233]"
  measured-target: "Phytophthora infestans"
  result-units: "%"
  pest or weed control at 40 ppm: 100
